Reference for the values: patent US12545674B2

assay: Stability test of crystalline forms (high temperature, high humidity, irradiation; HPLC purity and crystal form); format: physicochemical; details: High humidity 92.5 ± 5% RH/25° C., Day 10
VALUE KIND: Purity (%)
Value expressed in %; do not type the unit.

Use the examples below as a reference point.
| COMPOUND | Purity (%) |
| --- | --- |
| CC1(C)CCC(CN2CCN(c3ccc(C(=O)NS(=O)(=O)c4ccc(NC[C@H]5COCCO5)c([N+](=O)[O-])c4)c(Oc4cnc5[nH]ccc5c4)c3)CC2)=C(c2ccc(C(F)(F)F)cc2Cl)C1 [Amorphous form] | 97.89 |
| CC1(C)CCC(CN2CCN(c3ccc(C(=O)NS(=O)(=O)c4ccc(NC[C@H]5COCCO5)c([N+](=O)[O-])c4)c(Oc4cnc5[nH]ccc5c4)c3)CC2)=C(c2ccc(C(F)(F)F)cc2Cl)C1 [Crystalline form E] | 97.89 |
| CC1(C)CCC(CN2CCN(c3ccc(C(=O)NS(=O)(=O)c4ccc(NC[C@H]5COCCO5)c([N+](=O)[O-])c4)c(Oc4cnc5[nH]ccc5c4)c3)CC2)=C(c2ccc(C(F)(F)F)cc2Cl)C1 [Crystalline form C] | 98.64 |
| CC1(C)CCC(CN2CCN(c3ccc(C(=O)NS(=O)(=O)c4ccc(NC[C@H]5COCCO5)c([N+](=O)[O-])c4)c(Oc4cnc5[nH]ccc5c4)c3)CC2)=C(c2ccc(C(F)(F)F)cc2Cl)C1 [Crystalline form A] | 97.91 |

Query compound follows.
The reported value for CC1(C)CCC(CN2CCN(c3ccc(C(=O)NS(=O)(=O)c4ccc(NC[C@H]5COCCO5)c([N+](=O)[O-])c4)c(Oc4cnc5[nH]ccc5c4)c3)CC2)=C(c2ccc(C(F)(F)F)cc2Cl)C1 [Crystalline form B] in terms of Purity is 98.36

---

Experiment: Stability test of crystalline forms (high temperature, high humidity, irradiation; HPLC purity and crystal form)
Assay type: physicochemical
Details: High humidity 92.5 ± 5% RH/25° C., Day 5
Experimental: Test samples were put into an open and proper clean container, and left to stand at 60° C. for 10 days. Samples were collected on day 5 and day 10; Test samples were put into a closed humid container, and left to stand at 92.5%±5% RH/25° C. for 10 days. Samples were collected on day 5 and day 10; Test samples were put into a lighting box or other suitable lighting devices (open) with fluorescent lamps at 4500 1×±500 1× for 10 days. Samples were collected on day 5 and day 10. […]
VALUE KIND: Purity

| COMPOUND | Purity |
| --- | --- |
| CC1(C)CCC(CN2CCN(c3ccc(C(=O)NS(=O)(=O)c4ccc(NC[C@H]5COCCO5)c([N+](=O)[O-])c4)c(Oc4cnc5[nH]ccc5c4)c3)CC2)=C(c2ccc(C(F)(F)F)cc2Cl)C1 [Crystalline form C] | 98.70% |
| CC1(C)CCC(CN2CCN(c3ccc(C(=O)NS(=O)(=O)c4ccc(NC[C@H]5COCCO5)c([N+](=O)[O-])c4)c(Oc4cnc5[nH]ccc5c4)c3)CC2)=C(c2ccc(C(F)(F)F)cc2Cl)C1 [Crystalline form B] | 98.45% |

Kindly note the recorded Purity for CC1(C)CCC(CN2CCN(c3ccc(C(=O)NS(=O)(=O)c4ccc(NC[C@H]5COCCO5)c([N+](=O)[O-])c4)c(Oc4cnc5[nH]ccc5c4)c3)CC2)=C(c2ccc(C(F)(F)F)cc2Cl)C1 [Amorphous form] , which is 97.85%

So, CC1(C)CCC(CN2CCN(c3ccc(C(=O)NS(=O)(=O)c4ccc(NC[C@H]5COCCO5)c([N+](=O)[O-])c4)c(Oc4cnc5[nH]ccc5c4)c3)CC2)=C(c2ccc(C(F)(F)F)cc2Cl)C1 [Crystalline form A] ? Its Purity was 97.84%

---

experiment: Stability test of crystalline forms (high temperature, high humidity, irradiation; HPLC purity and crystal form); assay type: physicochemical; settings: High humidity 92.5 ± 5% RH/25° C., Day 0
Reported Purity values for the following compounds.
Give your result in % as a bare value.

Example compounds with recorded Purity:
| COMPOUND | Purity [%] |
| --- | --- |
| CC1(C)CCC(CN2CCN(c3ccc(C(=O)NS(=O)(=O)c4ccc(NC[C@H]5COCCO5)c([N+](=O)[O-])c4)c(Oc4cnc5[nH]ccc5c4)c3)CC2)=C(c2ccc(C(F)(F)F)cc2Cl)C1 [Crystalline form E] | 98.02 |
| CC1(C)CCC(CN2CCN(c3ccc(C(=O)NS(=O)(=O)c4ccc(NC[C@H]5COCCO5)c([N+](=O)[O-])c4)c(Oc4cnc5[nH]ccc5c4)c3)CC2)=C(c2ccc(C(F)(F)F)cc2Cl)C1 [Crystalline form B] | 98.44 |

Input CC1(C)CCC(CN2CCN(c3ccc(C(=O)NS(=O)(=O)c4ccc(NC[C@H]5COCCO5)c([N+](=O)[O-])c4)c(Oc4cnc5[nH]ccc5c4)c3)CC2)=C(c2ccc(C(F)(F)F)cc2Cl)C1 [Crystalline form C] . Output Purity: 98.56

Purity in this record for CC1(C)CCC(CN2CCN(c3ccc(C(=O)NS(=O)(=O)c4ccc(NC[C@H]5COCCO5)c([N+](=O)[O-])c4)c(Oc4cnc5[nH]ccc5c4)c3)CC2)=C(c2ccc(C(F)(F)F)cc2Cl)C1 [Amorphous form] : 97.91

According to the records, this compound CC1(C)CCC(CN2CCN(c3ccc(C(=O)NS(=O)(=O)c4ccc(NC[C@H]5COCCO5)c([N+](=O)[O-])c4)c(Oc4cnc5[nH]ccc5c4)c3)CC2)=C(c2ccc(C(F)(F)F)cc2Cl)C1 [Crystalline form A] displays Purity of 97.92

---

experiment: Stability test of crystalline forms (high temperature, high humidity, irradiation; HPLC purity and crystal form); format: physicochemical; conditions: Irradiation 4500 ± 500 lx, Day 5
VALUE KIND: Purity (%)
Give a bare numeral; the unit % is implied.

| COMPOUND | Purity / % |
| --- | --- |
| CC1(C)CCC(CN2CCN(c3ccc(C(=O)NS(=O)(=O)c4ccc(NC[C@H]5COCCO5)c([N+](=O)[O-])c4)c(Oc4cnc5[nH]ccc5c4)c3)CC2)=C(c2ccc(C(F)(F)F)cc2Cl)C1 [Amorphous form] | 95.96 |
| CC1(C)CCC(CN2CCN(c3ccc(C(=O)NS(=O)(=O)c4ccc(NC[C@H]5COCCO5)c([N+](=O)[O-])c4)c(Oc4cnc5[nH]ccc5c4)c3)CC2)=C(c2ccc(C(F)(F)F)cc2Cl)C1 [Crystalline form C] | 98.45 |
| CC1(C)CCC(CN2CCN(c3ccc(C(=O)NS(=O)(=O)c4ccc(NC[C@H]5COCCO5)c([N+](=O)[O-])c4)c(Oc4cnc5[nH]ccc5c4)c3)CC2)=C(c2ccc(C(F)(F)F)cc2Cl)C1 [Crystalline form A] | 97.07 |

Lab book: Purity of CC1(C)CCC(CN2CCN(c3ccc(C(=O)NS(=O)(=O)c4ccc(NC[C@H]5COCCO5)c([N+](=O)[O-])c4)c(Oc4cnc5[nH]ccc5c4)c3)CC2)=C(c2ccc(C(F)(F)F)cc2Cl)C1 [Crystalline form B] noted as 98.22

---

assay: Stability test of crystalline forms (high temperature, high humidity, irradiation; HPLC purity and crystal form); assay type: physicochemical; settings: High temperature 60° C., open container, Day 5
List of Purity values.
Give the value in % but do not write % after it.

Recorded Purity, per entry:
| MOLECULE | QUANTITATIVE READOUT |
| --- | --- |
| CC1(C)CCC(CN2CCN(c3ccc(C(=O)NS(=O)(=O)c4ccc(NC[C@H]5COCCO5)c([N+](=O)[O-])c4)c(Oc4cnc5[nH]ccc5c4)c3)CC2)=C(c2ccc(C(F)(F)F)cc2Cl)C1 [Crystalline form B] | 98.34 |
| CC1(C)CCC(CN2CCN(c3ccc(C(=O)NS(=O)(=O)c4ccc(NC[C@H]5COCCO5)c([N+](=O)[O-])c4)c(Oc4cnc5[nH]ccc5c4)c3)CC2)=C(c2ccc(C(F)(F)F)cc2Cl)C1 [Crystalline form C] | 98.25 |
| CC1(C)CCC(CN2CCN(c3ccc(C(=O)NS(=O)(=O)c4ccc(NC[C@H]5COCCO5)c([N+](=O)[O-])c4)c(Oc4cnc5[nH]ccc5c4)c3)CC2)=C(c2ccc(C(F)(F)F)cc2Cl)C1 [Amorphous form] | 97.51 |

Proceed to the following item.
Data point: CC1(C)CCC(CN2CCN(c3ccc(C(=O)NS(=O)(=O)c4ccc(NC[C@H]5COCCO5)c([N+](=O)[O-])c4)c(Oc4cnc5[nH]ccc5c4)c3)CC2)=C(c2ccc(C(F)(F)F)cc2Cl)C1 [Crystalline form A] ; Purity = 97.41

---

Quick list: Purity per entry.
experiment: Stability test of crystalline forms (high temperature, high humidity, irradiation; HPLC purity and crystal form); type: physicochemical; settings: Irradiation 4500 ± 500 lx, Day 0
Answer with a number only, understood to be in %.

| MOLECULE | Purity [%] |
| --- | --- |
| CC1(C)CCC(CN2CCN(c3ccc(C(=O)NS(=O)(=O)c4ccc(NC[C@H]5COCCO5)c([N+](=O)[O-])c4)c(Oc4cnc5[nH]ccc5c4)c3)CC2)=C(c2ccc(C(F)(F)F)cc2Cl)C1 [Crystalline form C] | 98.56 |

Attention now shifts to the item below.
Per the record, CC1(C)CCC(CN2CCN(c3ccc(C(=O)NS(=O)(=O)c4ccc(NC[C@H]5COCCO5)c([N+](=O)[O-])c4)c(Oc4cnc5[nH]ccc5c4)c3)CC2)=C(c2ccc(C(F)(F)F)cc2Cl)C1 [Crystalline form A] has Purity of 97.92
